Origin of the recorded values: paper PMC9313812

PROTOCOL_NOTES: Kinetic solubility determination
Assay type: physicochemical
MEASUREMENT_CONDITIONS: aqueous buffer, pH 7.4, aqueous buffer, kinetic from dmso stock; Table S9
MEASURED_ENDPOINT: solubility kinetic (µM)
// return numeric value only (unit: µM, not printed)

• COC(=O)C1(C(CC(=O)c2cccnc2)c2ccccc2)N=C(c2ccc(Br)cc2)C2C(=O)N(C)C(=O)C21 (centres unmarked) = 47.3

The record that follows has no solubility kinetic shown yet.
Enquiry: Look at this molecule and give its reported solubility kinetic. COC(=O)C1(C(CC(=O)c2ccccc2)c2ccccc2)N=C(c2ccc(Br)cc2)C2C(=O)N(C)C(=O)C21 (centres unmarked)
Return: 5.7
